# SYSTEM NAME: 5-hydroxytryptamine receptor 1B (Rattus norvegicus, UniProt P28564); note: in other assays of this panel Not Active means under 50% inhibition at 10 µM
# Sequence (P28564 whole entry): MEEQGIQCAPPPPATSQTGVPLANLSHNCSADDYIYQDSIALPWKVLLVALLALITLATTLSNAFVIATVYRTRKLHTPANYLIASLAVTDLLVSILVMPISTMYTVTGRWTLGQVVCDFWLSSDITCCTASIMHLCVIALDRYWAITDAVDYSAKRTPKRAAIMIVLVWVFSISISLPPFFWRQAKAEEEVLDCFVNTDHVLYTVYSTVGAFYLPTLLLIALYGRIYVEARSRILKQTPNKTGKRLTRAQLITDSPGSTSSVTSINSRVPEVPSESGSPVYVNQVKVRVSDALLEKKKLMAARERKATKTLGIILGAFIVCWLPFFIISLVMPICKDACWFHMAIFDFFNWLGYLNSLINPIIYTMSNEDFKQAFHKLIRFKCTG
# Assay type: cell membranes, Wistar, Cerebral cortex, Membrane
RECORDED ENDPOINT: IC50

- COMPOUND: "CCCc1nn(C)c2c(=O)[nH]c(-c3cc(S(=O)(=O)N4CCN(C)CC4)ccc3OCC)nc12"
  ASSAY VALUE: "Not Active"
- COMPOUND: "O=P(O)(O)C(O)(Cc1cccnc1)P(=O)(O)O"
  ASSAY VALUE: "Not Active"
- COMPOUND: "COc1ncnc(NS(=O)(=O)c2ccc(N)cc2)c1OC"
  ASSAY VALUE: "Not Active"
- COMPOUND: "CC(C(=O)O)c1ccc(-c2ccccc2)c(F)c1 (centres undefined)"
  ASSAY VALUE: "Not Active"
- COMPOUND: "Nc1ccc(S(=O)(=O)Nc2ncccn2)cc1"
  ASSAY VALUE: "Not Active"
- COMPOUND: "Nc1nc(Cl)nc2c1ncn2[C@H]1C[C@H](O)[C@@H](CO)O1"
  ASSAY VALUE: "Not Active"
- COMPOUND: "CCN[C@@H](C)Cc1cccc(C(F)(F)F)c1"
  ASSAY VALUE: "Not Active"
- COMPOUND: "O=P1(N(CCCl)CCCl)NCCCO1 (centres undefined) [CYCLOPHOSPHAMIDE ANHYDROUS]"
  ASSAY VALUE: "Not Active"
- COMPOUND: "CCCCC1C(=O)N(c2ccccc2)N(c2ccccc2)C1=O"
  ASSAY VALUE: "Not Active"
- COMPOUND: "Cc1cn[nH]c1 [FOMEPIZOLE]"
  ASSAY VALUE: "Not Active"
- COMPOUND: "Cc1cccc(Nc2cc(Cl)nc(SCC(=O)O)n2)c1C"
  ASSAY VALUE: "Not Active"
- COMPOUND: "CC[C@H]1OC(=O)[C@H](C)[C@@H](O[C@H]2C[C@@](C)(OC)[C@@H](O)[C@H](C)O2)[C@H](C)[C@@H](O[C@@H]2O[C@H](C)C[C@H](N(C)C)[C@H]2O)[C@](C)(O)C[C@@H](C)CN(C)[C@H](C)[C@@H](O)[C@]1(C)O"
  ASSAY VALUE: "Not Active"
- COMPOUND: "CN1C2CCCC1CC(NC(=O)c1nn(C)c3ccccc13)C2 (centres undefined)"
  ASSAY VALUE: "Not Active"
- COMPOUND: "COc1ccc(/C=C/C(=O)Nc2ccccc2C(=O)O)cc1OC"
  ASSAY VALUE: "Not Active"
- COMPOUND: "COc1cc(CNC(=O)CCCC/C=C/C(C)C)ccc1O"
  ASSAY VALUE: "Not Active"
- COMPOUND: "COc1ccc(CN2CCNCC2)c(OC)c1OC"
  ASSAY VALUE: "Not Active"
- COMPOUND: "O=C(O)c1cccnc1"
  ASSAY VALUE: "Not Active"
- COMPOUND: "CO[C@@]1(NC(=O)CSCC#N)C(=O)N2C(C(=O)O)=C(CSc3nnnn3C)CS[C@@H]21"
  ASSAY VALUE: "Not Active"
- COMPOUND: "CC(=O)OCC(CCn1cnc2cnc(N)nc21)COC(C)=O"
  ASSAY VALUE: "Not Active"
